assaySystem: Transcriptional regulator ERG (Homo sapiens)
assayMethodText: qHTS for Small Molecule Inhibitors of the ERG Ets/DNA interaction: TR assay against cherry picks
conditionSummary: ERG Ets domain-DNA fluorescence polarization, Texas red probe; series mostly up to 154 µM
Hit rate of the full screen: of about 1,200 compounds, fewer than 10 were called active. Not all results are given here.
endpointLabel: outcome

Here are 5 molecules together with their reported answers.
* CC(C)n1c(SCc2ccccc2F)nc2c1c(=O)n(C)c(=O)n2C | inactive
* O=C(c1ccccc1)c1ccc[nH]1 | inactive
* Cn1c(SCc2nnc(-c3ccccc3)o2)nc2ccccc21 | inactive
* COc1ccc(S(=O)(=O)N2CCc3ccccc32)cc1C(=O)N(CC(C)C)C1CCS(=O)(=O)C1 (stereo unspecified) | inactive
* COc1ccc(S(=O)(=O)NCCNC(=O)N2CCOCC2)cc1 | inactive

For the next question, use this molecule.
Enquiry: Which outcome is reported for this molecule? `COc1ccc(N/C=C(\C(C)=O)c2ccc(OC)c(OC)c2)cc1OC`
Return: inactive
